# Tested on: DU-145
# Experiment notes: NCI tumour cell line growth inhibition, 48 h
Active and inactive are the calls of the source. Cut-off read from the data, not from the text of the source: active = GI50 up to about 1.1 µM and inactive = higher.
For each entry below, report its GI50 value.

Requested read-out GI50, target or system DU-145, entry CN(C)c1ccc(/C=C2\N=C(c3ccccc3)N(c3ccc4c(c3)Sc3cc(N5C(=O)/C(=C/c6ccc(N(C)C)cc6)N=C5c5ccccc5)ccc3N4)C2=O)cc1 22.1 µM (inactive)

Hi! What's the reported GI50 for O=C(CNc1ccccc1[N+](=O)[O-])Nn1c(-c2ccccc2)nc2ccccc2c1=O on DU-145? 28.7 µM (inactive)

What value of GI50 on DU-145 does COC(=O)[C@@H](NC(=O)[C@H](N)Cc1ccc(N(CCCl)CCCl)cc1)C(C)C have? 8.57 µM (inactive)

Item CC[C@H](C)C(=O)O[C@H]1CCC=C2C=C[C@H](C)[C@H](CC[C@@H]3C[C@@H](O)CC(=O)O3)[C@H]21 [MEVASTATIN] with DU-145 - GI50? > 92.3 µM (inactive)
